biological target: P. vivax DHODH (Plasmodium vivax, UniProt A5K1N1); assay: DHODH inhibition, steady-state DCIP assay (PvDHODH); format: biochemical; conditions: recombinant PvDHODH, DCIP method, 25°C, 5 nM enzyme; read-out: P. vivax DHODH (IC50)
Sequence (A5K1N1 entry or part of it): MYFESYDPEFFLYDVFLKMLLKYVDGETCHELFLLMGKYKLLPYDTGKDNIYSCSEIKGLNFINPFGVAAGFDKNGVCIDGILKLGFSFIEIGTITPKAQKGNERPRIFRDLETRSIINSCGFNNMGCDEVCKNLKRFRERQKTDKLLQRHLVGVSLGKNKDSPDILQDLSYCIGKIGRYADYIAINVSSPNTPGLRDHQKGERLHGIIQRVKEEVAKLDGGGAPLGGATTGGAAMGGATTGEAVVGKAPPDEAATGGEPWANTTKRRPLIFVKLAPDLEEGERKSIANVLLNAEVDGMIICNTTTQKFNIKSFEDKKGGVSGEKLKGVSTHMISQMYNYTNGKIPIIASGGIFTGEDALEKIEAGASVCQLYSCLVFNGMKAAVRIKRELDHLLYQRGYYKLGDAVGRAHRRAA
Response field label takes rule met when IC50 is strictly below 20 nM and rule not met in all other cases.

Recorded results for 4 compounds are shown here.
[
  {
    "COMPOUND": "Cn1nc2c(=O)n(C3CC3)cnc2c1[C@](C)(O)c1cnc(C(F)(F)F)c(Cl)c1 (single isomer, unassigned) [3-1]",
    "LABEL": "rule met"
  },
  {
    "COMPOUND": "Cn1nc2c(=O)n(C3CC3)ccc2c1[C@](O)(c1ccc(C(F)(F)F)nc1)C(F)(F)F (single isomer, unassigned) [5-11]",
    "LABEL": "rule not met"
  },
  {
    "COMPOUND": "CCn1ccc2c([C@](C)(O)c3ccc(C(F)(F)F)c(Cl)c3)n(C)nc2c1=O (single isomer, unassigned) [1-46]",
    "LABEL": "rule met"
  },
  {
    "COMPOUND": "CCn1ccc2c([C@](C)(O)c3cnc(C(F)(F)F)c(Cl)c3)n(C)nc2c1=O (single isomer, unassigned) [1-36]",
    "LABEL": "rule met"
  }
]

Ask | Just wondering, is IC50 of CCn1ccc2c([C@](C)(O)c3ccc(F)c(Cl)c3)n(C)nc2c1=O (single isomer, unassigned) [1-40] below 20 nM?
Reply | rule met

Ask | Also Cn1nc2c(=O)n(C3CC3)cnc2c1[C@](O)(c1cnc(C(F)(F)F)c(Cl)c1)C(F)(F)F (single isomer, unassigned) [5-3] ?
Reply | rule not met

Ask | Same question, Cn1nc2c(=O)n(C3CC3)ccc2c1[C@](N)(c1ccc(C(F)(F)F)c(C#N)c1)C(F)(F)F (single isomer, unassigned) [5-45] this time
Reply | rule met

Ask | Please give the result for Cn1nc2c(=O)n(C3CC3)cnc2c1[C@](O)(c1ccc(C(F)(F)F)c(Cl)c1)C(F)(F)F (single isomer, unassigned) [5-17] too.
Reply | rule met

Ask | Same question, CC[C@@](O)(c1ccc(C(F)(F)F)c(C#N)c1)c1c2cnn(C3CC3)c(=O)c2nn1C (single isomer, unassigned) [2-5] this time
Reply | rule met
